assay: self-splicing fitness, log relative to wild type (ln ratio); higher = more splicing; Tetrahymena group I intron in knt gene, E. coli kanamycin selection, DiMSum; sequences stand for … in CUCUCU…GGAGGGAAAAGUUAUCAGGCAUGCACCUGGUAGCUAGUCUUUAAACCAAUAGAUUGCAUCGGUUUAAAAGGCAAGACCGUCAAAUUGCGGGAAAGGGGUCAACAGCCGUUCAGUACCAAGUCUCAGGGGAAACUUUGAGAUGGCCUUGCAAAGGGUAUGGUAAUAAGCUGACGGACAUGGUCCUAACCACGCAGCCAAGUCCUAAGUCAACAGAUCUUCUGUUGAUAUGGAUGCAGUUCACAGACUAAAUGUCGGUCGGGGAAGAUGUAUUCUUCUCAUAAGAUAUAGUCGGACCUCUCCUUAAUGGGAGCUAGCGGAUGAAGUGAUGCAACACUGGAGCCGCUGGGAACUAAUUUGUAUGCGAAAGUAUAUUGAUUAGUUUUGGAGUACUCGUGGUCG; conditions: 37 °C;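 also: selection with 25 µg/mL kanamycin versus none on LB agar overnight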
Give measured self-splicing fitness (ln) for each item. Keep answers brief.
I only need the number, thanks.

Query: Data request, read-out self-splicing fitness (ln), for AAAUAGCAAUAUUACGGGAU
Result: -1.03

Query: What self-splicing fitness (ln) value was documented for this sequence, GCCAAGCAAUAUUACGCUGU ?
Result: -1.36

Query: Look up self-splicing fitness (ln) for this sequence: CCUGAGCAAUAUUACGUACU
Result: -2.3

Query: Requested read-out: self-splicing fitness (ln). Entry: CUACAGCAAUAUUACGUUAA
Result: -2.94

Query: // returns reported self-splicing fitness (ln) for input UACCAGCAAUAUUACGCAAG
Result: -0.829

Query: self-splicing fitness (ln) lookup needed for GGACAGCAAUAUUACGAUCG , thanks.
Result: 0.519

Query: Tell me the measured self-splicing fitness (ln) of GCCUAGCAAUAUUACGCGCC , please.
Result: -1.39

Query: Item under review: UUAUAGCAAUAUUACGCACU . Reported self-splicing fitness (ln)?
Result: -0.214

Query: Endpoint output: self-splicing fitness (ln) of ACUUAGCAAUAUUACGUAUU . Value?
Result: -2.26

Query: Quick check: self-splicing fitness (ln) of UUAGAGCAAUAUUACGGGUU ?
Result: -3.21

Query: // returns reported self-splicing fitness (ln) for input GGUAAGCAAUAUUACGUCUA
Result: -0.562

Query: Recorded self-splicing fitness (ln) for CCGUAGCAAUAUUACGGGAA , please?
Result: -2.04

Query: Returns the measured self-splicing fitness (ln) for the input sequence. Input: CAACAGCAAUAUUACGACUA
Result: -0.653

Query: // returns reported self-splicing fitness (ln) for input CGACAGCAAUAUUACGGCUG
Result: -0.951

Query: Entry AUCAAGCAAUAUUACGUGUA : reported self-splicing fitness (ln) = ?
Result: -1.42

Query: For the sequence GUGUAGCAAUAUUACGGAUU , what self-splicing fitness (ln) is on record?
Result: -1.16

Query: Given GUACAGCAAUAUUACGAUGG , state its recorded self-splicing fitness (ln).
Result: -2.48

Query: Form field: reported self-splicing fitness (ln) of CUGUAGCAAUAUUACGUCAU
Result: -3.14

Query: Could you share which self-splicing fitness (ln) value was measured for CGACAGCAAUAUUACGCCGA ?
Result: -0.991

Query: Which self-splicing fitness (ln) value belongs to CCCAAGCAAUAUUACGCCAA ?
Result: -2.47

Query: Recorded self-splicing fitness (ln) for GUGGAGCAAUAUUACGACGA , please?
Result: -1.12

Query: Query (sequence): GCUAAGCAAUAUUACGGCUC ; field requested: self-splicing fitness (ln)
Result: -0.942

Query: Consider the sequence shown here: GUAGAGCAAUAUUACGUAUU What is its recorded self-splicing fitness (ln)?
Result: -1.42

Query: Look up self-splicing fitness (ln) for this sequence: AAGGAGCAAUAUUACGGCAU
Result: -2.05

Query: Sample CUCCAGCAAUAUUACGCCCG — what was its self-splicing fitness (ln)?
Result: -0.904

Query: What measured self-splicing fitness (ln) goes with GUCGAGCAAUAUUACGGGCU ?
Result: -1.53

Query: Item ACAGAGCAAUAUUACGCACA has what recorded self-splicing fitness (ln)?
Result: -1.39

Query: Query (sequence): AUGAAGCAAUAUUACGUUCA ; field requested: self-splicing fitness (ln)
Result: 0.318

Query: Look up self-splicing fitness (ln): GCAUAGCAAUAUUACGUUCG
Result: 0.166

Query: If you can, please state the reported self-splicing fitness (ln) value of UCGGAGCAAUAUUACGGCCC .
Result: -2.31

Query: Form field: reported self-splicing fitness (ln) of AAAGAGCAAUAUUACGUAAG
Result: -2.57

Query: Report self-splicing fitness (ln) for UUAAAGCAAUAUUACGUAAA please.
Result: -0.0909

Query: Which self-splicing fitness (ln) is listed for AAGCAGCAAUAUUACGGGAU ?
Result: -1.92

Query: Requested read-out: self-splicing fitness (ln). Entry: CGAGAGCAAUAUUACGACAG
Result: -1.15

Query: Reported self-splicing fitness (ln), sequence UUCUAGCAAUAUUACGGCAU : ____
Result: -1.58

Query: Record request: self-splicing fitness (ln) value, item CUCGAGCAAUAUUACGAGUA
Result: -2.75

Query: Which self-splicing fitness (ln) value is on record for GAGAAGCAAUAUUACGUUUC ?
Result: -3.08

Query: Name the reported self-splicing fitness (ln) value associated with the sequence GUCGAGCAAUAUUACGCCCC
Result: -1.01

Query: Please report the recorded self-splicing fitness (ln) for AUGGAGCAAUAUUACGCGUA .
Result: -2.09

Query: Which self-splicing fitness (ln) value is on record for GCAUAGCAAUAUUACGGGGG ?
Result: -2.13

Query: So what does the record say about self-splicing fitness (ln) for GUCUAGCAAUAUUACGGGUU ?
Result: -0.234

Query: Name the reported self-splicing fitness (ln) value associated with the sequence CUGUAGCAAUAUUACGCUGA
Result: -3.78

Query: Could you tell me which self-splicing fitness (ln) is on file for AGCUAGCAAUAUUACGUUUU ?
Result: -2.18

Query: Find the recorded self-splicing fitness (ln) belonging to GUCCAGCAAUAUUACGCUUU and report it.
Result: 0.678

Query: Consider the sequence GACUAGCAAUAUUACGGUCU and give its measured self-splicing fitness (ln).
Result: -3.21

Query: Data request, read-out self-splicing fitness (ln), for GGCCAGCAAUAUUACGUUCG
Result: -1.75

Query: Record request: self-splicing fitness (ln) value, item GCGGAGCAAUAUUACGACAU
Result: -0.573

Query: Please report the recorded self-splicing fitness (ln) for GCGCAGCAAUAUUACGUCGA .
Result: 0.801

Query: Which measured self-splicing fitness (ln) value corresponds to AGACAGCAAUAUUACGCCUU ?
Result: -0.727

Query: Consider the sequence shown here: CCUUAGCAAUAUUACGGUCU What is its recorded self-splicing fitness (ln)?
Result: -3.77

Query: I have this sequence here, UGAAAGCAAUAUUACGAGCU , and I need its recorded self-splicing fitness (ln).
Result: -0.746

Query: self-splicing fitness (ln) lookup needed for UGCAAGCAAUAUUACGGCUC , thanks.
Result: -1.01

Query: Item under review: UCUUAGCAAUAUUACGUUUA . Reported self-splicing fitness (ln)?
Result: -2.57

Query: Give the measured self-splicing fitness (ln) of UUGCAGCAAUAUUACGGAGU .
Result: -2.44

Query: Would you kindly share the measured self-splicing fitness (ln) for AAAUAGCAAUAUUACGUAGU ?
Result: -1.79

Query: # lookup: self-splicing fitness (ln) of GAUAAGCAAUAUUACGAACA
Result: -0.468

Query: So what does the record say about self-splicing fitness (ln) for ACGUAGCAAUAUUACGGGGU ?
Result: -2.51

Query: Which self-splicing fitness (ln) reading was recorded for the sequence CUGAAGCAAUAUUACGCAAG ?
Result: 0.142

Query: Returns the measured self-splicing fitness (ln) for the input sequence. Input: CUCAAGCAAUAUUACGGUCC
Result: 0.396

Query: Would you kindly share the measured self-splicing fitness (ln) for AGGCAGCAAUAUUACGUCUU ?
Result: -2.58

Query: Sample CUCAAGCAAUAUUACGCUUC — what was its self-splicing fitness (ln)?
Result: -2.7

Query: Could you tell me which self-splicing fitness (ln) is on file for UUGAAGCAAUAUUACGAAAU ?
Result: -0.963

Query: Find the recorded self-splicing fitness (ln) belonging to UGUUAGCAAUAUUACGCUAU and report it.
Result: -1.29

Query: Report self-splicing fitness (ln) for UUGGAGCAAUAUUACGCAUG please.
Result: -0.58

Query: What does the data say about its self-splicing fitness (ln)? Entry: UGCAAGCAAUAUUACGUCCA
Result: 0.213

Query: Give its self-splicing fitness (ln) value. Item: AGCAAGCAAUAUUACGAACC
Result: 0.286

Query: May I ask what self-splicing fitness (ln) has been recorded for GGCAAGCAAUAUUACGCGGG ?
Result: -3.23
